Measured values drawn from the RNAGym collection of RNA variant scans (doi:10.7554/elife.80360) for this set.

B1: HDV Ribozyme (parent)
chain: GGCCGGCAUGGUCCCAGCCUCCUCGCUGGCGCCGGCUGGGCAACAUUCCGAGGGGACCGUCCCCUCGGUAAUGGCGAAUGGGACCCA

Variants of: B1
Test: self-cleavage, relative activity (ratio to wild type); higher = more cleavage; co-transcriptional
Threshold rule: self-cleavage greater than or equal to 0.6 is Met; below that, Not met.

Here are 5 variants together with their reported answers.
INSERT INTO measurements (item_sequence, label) VALUES
  ('GGCCGGCAUGGUCCCAGCCUCCUCGCUGGCGCCGGCUGGGCAACAUUCCGAGGGGACCGUCGCCUCGGUAAUGGCGAAUGGGUCCCA [C62G A83U]', 'Not met'),
  ('GGCCGGCAUGGUCCCAGCCUCCUCGCUGGCGCCGGCAGGGCAACAUUCCGAGGUGACCGUCCCCUCGGUAAUGGCGAAUGGGACCCA [U37A G54U]', 'Not met'),
  ('GGCCGGCAUGGUCCCAGCCUCCUCGCUGGCGCCGGCUGGGCAACACUCCGAGUGGACCGUCCCCUCGGUAAUGGCGAAUGGGACCCA [U46C G53U]', 'Met'),
  ('GGCCGGCAUGGUCCCAGCCUCCUCGCUGGCGCCGGCUGAGCAACAUUCCGAGGGGACCGUCCCCUCGGUAAUGGCGAAUGGGCCCCA [G39A A83C]', 'Not met'),
  ('GGUCGGCAUGGUCCCAGCCUCCUCGCUGGCGCCGGCUGGGCAACAUUCCGAGGGGACCGUCCCCGCGGUAAUGGCGAAUGGGACCCA [C3U U65G]', 'Met');

Answer whether self-cleavage of GGCCGGCAUGGUCCUAGCCUCCUCGUUGGCGCCGGCUGGGCAACAUUCCGAGGGGACCGUCCCCUCGGUAAUGGCGAAUGGGACCCA [C15U C26U] is greater than or equal to 0.6. Met

# check: self-cleavage of GGCCGGCAUGGUCCCAGCCUCCUCGCUGGCGCCGGCUGGGCAACAUUCCGAGCGGACCGUCCCCUCGGUAAUGGAGAAUGGGACCCA [G53C C75A] is greater than or equal to 0.6 Not met

Would you say GGCCGGCAUGGUCCCAGCCUCCUCGCUGGCGCCGGCUGGGCUACAUUCCGAGGGGGCCGUCCCCUCGGUAAUGGCGAAUGGGACCCA [A42U A56G] shows self-cleavage at minimum 0.6? Not met
